# system under test: Human DGAT1 (Homo sapiens, UniProt O75907)
# Construct: my translation of the primer: M-G-DYKDDDD-GDRGSSRRR) (N); made in house; host or cells: Sf9 insect cells (recombinant baculovirus BAC-DGAT1, pFASTBAC1); microsome fraction
# Sequence (O75907 whole entry): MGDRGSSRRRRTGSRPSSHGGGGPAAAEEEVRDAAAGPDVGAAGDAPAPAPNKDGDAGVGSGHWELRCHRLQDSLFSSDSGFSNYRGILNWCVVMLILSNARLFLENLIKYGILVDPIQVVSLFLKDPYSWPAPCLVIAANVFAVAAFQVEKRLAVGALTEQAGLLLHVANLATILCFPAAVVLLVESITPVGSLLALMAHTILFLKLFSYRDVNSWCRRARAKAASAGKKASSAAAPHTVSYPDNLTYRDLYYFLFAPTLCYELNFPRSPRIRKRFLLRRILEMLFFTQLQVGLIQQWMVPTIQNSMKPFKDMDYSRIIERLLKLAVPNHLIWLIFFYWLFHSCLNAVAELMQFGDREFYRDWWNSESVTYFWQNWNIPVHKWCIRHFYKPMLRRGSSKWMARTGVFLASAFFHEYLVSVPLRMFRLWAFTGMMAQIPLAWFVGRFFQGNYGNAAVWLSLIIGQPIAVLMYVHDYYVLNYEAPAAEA
# procedure details: DGAT inhibitory activity: [14C]-triglyceride synthesis by DGAT1 high expression Sf9 microsome
# Type: biochemical
# measurement setup: Table 2, 25 μM dioleoylglycerol, 25 μM [14C]-Oleoyl-CoA, 32° C., 15 min, read-out: DGAT inhibitory activity (according to IC50)
observable: IC50

| molecule | system under test | observable | reported measurement |
| --- | --- | --- | --- |
| CCOc1ccc(C(=O)CCC(=O)Nc2cc(-c3ccccc3)c3ccccc3n2)cc1OCC [Example 74] | Human DGAT1 (Homo sapiens, UniProt O75907) | IC50 | ≤ 10 nM |
| CCOc1cccc(C(=O)CCC(=O)Nc2cc(-c3ccccc3)cc(-c3ccccc3)n2)c1 [Example 103] | Human DGAT1 (Homo sapiens, UniProt O75907) | IC50 | 500 to 10000 nM |
| CCOc1ccc(C(=O)CCC(=O)Nc2cc(-c3ccc(C4CCCCC4)cc3)cc(-c3ccccc3)n2)cc1OCC [Example 110] | Human DGAT1 (Homo sapiens, UniProt O75907) | IC50 | 500 to 10000 nM |
| CCOc1ccc(C(=O)CCC(=O)Nc2cc(-c3cccc(C(C)=O)c3)cc(-c3ccccc3)n2)cc1OCC [Example 140] | Human DGAT1 (Homo sapiens, UniProt O75907) | IC50 | 50 to 500 nM |
| CCOc1ccc(C(=O)CCC(=O)Nc2cc(-c3ccc(OCCN)cc3)c3ccccc3n2)cc1OCC [Example 94] | Human DGAT1 (Homo sapiens, UniProt O75907) | IC50 | 50 to 500 nM |
| CCCCOCCOc1cc(NC(=O)CCC(=O)c2ccc(OCC)c(OCC)c2)nc(-c2ccccc2)c1 [Example 107] | Human DGAT1 (Homo sapiens, UniProt O75907) | IC50 | 50 to 500 nM |
| CCOc1ccc(C(=O)CCC(=O)Nc2cc(-c3ccccc3)c3ccccc3n2)cc1 [Example 79] | Human DGAT1 (Homo sapiens, UniProt O75907) | IC50 | 10 to 50 nM |
